# test-system: human orexin-1 receptor (hOX1R) (Homo sapiens)
# Construct: expressed in transfected cells; host or cells: Chinese hamster ovary (CHO) cells
# Sequence (O43613 whole entry): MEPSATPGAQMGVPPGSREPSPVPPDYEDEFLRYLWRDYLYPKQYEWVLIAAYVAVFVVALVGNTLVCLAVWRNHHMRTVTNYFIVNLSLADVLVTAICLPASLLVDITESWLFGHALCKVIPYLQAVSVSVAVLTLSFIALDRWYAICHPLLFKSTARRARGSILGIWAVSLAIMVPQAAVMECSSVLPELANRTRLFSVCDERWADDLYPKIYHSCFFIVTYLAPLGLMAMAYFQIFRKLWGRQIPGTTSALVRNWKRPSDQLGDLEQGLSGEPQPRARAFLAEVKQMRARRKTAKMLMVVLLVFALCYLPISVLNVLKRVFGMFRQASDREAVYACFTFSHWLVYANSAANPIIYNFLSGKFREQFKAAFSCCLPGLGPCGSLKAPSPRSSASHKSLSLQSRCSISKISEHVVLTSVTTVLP
# assay-explanation: Orexin antagonistic activity assay (intracellular Ca2+, FDSS) in CHO cells expressing hOX1R
# Format: cell-based
# test-parameters: CHO cells expressing hOX1R; ligand peptide 300 pM; Fluo-3 maximum fluorescence intensity; read-out: IC50 value OX1
quantity: IC50 (nM)

Example entries begin here.
C[C@@H]1CC[C@@H](c2nc3cc(Cl)ccc3o2)CN1C(=O)c1cc(F)ccc1-c1ncc(F)cn1 [Example 23] :: 168
Cc1ccc(-n2nccn2)c(C(=O)N2C[C@H](c3nc4cc(C(F)(F)F)ccc4o3)CC[C@H]2C)n1 [Example 40] :: 157
C[C@@H]1CC[C@@H](c2nc3cc(Cl)ccc3o2)CN1C(=O)c1ccccc1-c1ncccn1 (single isomer, unassigned) [Example 7] :: 49.5
C[C@@H]1CC[C@@H](c2nc3cc(Cl)ccc3o2)CN1C(=O)c1ccccc1-n1nccn1 (single isomer, unassigned) [Example 3] :: 18.1
C[C@@H]1CC[C@@H](c2nc3cc(Cl)ccc3o2)CN1C(=O)c1cc(F)ccc1-n1nccn1 (single isomer, unassigned) [Example 2] :: 19.8
C[C@@H]1CC[C@@H](c2nc3cc(Cl)ccc3o2)CN1C(=O)c1cccc(F)c1-c1ncccn1 [Example 18] :: 301
C[C@@H]1CC[C@@H](c2nc3cc(Cl)ccc3o2)CN1C(=O)c1c(F)cccc1-c1ncccn1 [Example 19] :: 83.7
Cc1ccc(-n2nccn2)c(C(=O)N2C[C@H](c3nc4cc(F)cc(F)c4o3)CC[C@H]2C)n1 [Example 64] :: 144
C[C@@H]1CC[C@@H](c2nc3cc(F)ccc3o2)CN1C(=O)c1ccc(F)cc1-n1nccn1 [Example 34] :: 212
C[C@@H]1CC[C@@H](c2nc3ccc(Cl)cc3o2)CN1C(=O)c1cc(F)ccc1-c1ncccn1 [Example 45] :: 77.2

(A) C[C@@H]1CC[C@@H](c2nc3cc(F)c(F)cc3o2)CN1C(=O)c1ccc(F)cc1-n1nccn1 [Example 55]
(B) Cc1ccc(-c2ncccn2)c(C(=O)N2C[C@H](c3nc4c(F)cccc4o3)CC[C@H]2C)c1 [Example 67]
## Task Lower value for measured IC50? Options: A , B Label of pick, please.
## Result B

(I) C[C@@H]1CC[C@@H](c2nc3cc(Cl)cnc3o2)CN1C(=O)c1ccc(F)cc1-n1nccn1 [Example 72]
(II) C[C@@H]1CC[C@@H](c2nc3cc(Cl)ccc3o2)CN1C(=O)c1c(F)cccc1-n1nccn1 [Example 16]
## Task Lower value for measured IC50? Options: I , II Label of pick, please.
## Result II
(II: 25.6 nM, I: 412 nM)

(I) Cc1ccc(-c2ncccn2)c(C(=O)N2C[C@H](c3nc4cc(F)c(F)cc4o3)CC[C@H]2C)c1 [Example 51]
(II) Cc1ccc(-n2nccn2)c(C(=O)N2C[C@H](c3nc4c(Cl)cccc4o3)CC[C@H]2C)c1 [Example 68]
(III) C[C@@H]1CC[C@@H](c2nc3cc(F)ccc3o2)CN1C(=O)c1c(F)cccc1-n1nccn1 [Example 35]
(IV) Cc1ccc(-c2ncccn2)c(C(=O)N2C[C@H](c3nc4cc(Cl)ccc4o3)CC[C@H]2C)c1 (single isomer, unassigned) [Example 5]
(V) C[C@@H]1CC[C@@H](c2nc3cc(Cl)ccc3o2)CN1C(=O)c1ccc(F)cc1-c1ncccn1 [Example 17]
## Task Could you please sort these 5 entries by IC50 from high to low? Returns: the labels listed in the requested order.
## Result III, V, I, II, IV
(III: 91.1 nM, V: 54.5 nM, I: 13.5 nM, II: 7.1 nM, IV: 3.1 nM)
